Please respond with reported PBM E-score for every item in the list.
Target system: Cad1 (UniProt P24813)
Sequence: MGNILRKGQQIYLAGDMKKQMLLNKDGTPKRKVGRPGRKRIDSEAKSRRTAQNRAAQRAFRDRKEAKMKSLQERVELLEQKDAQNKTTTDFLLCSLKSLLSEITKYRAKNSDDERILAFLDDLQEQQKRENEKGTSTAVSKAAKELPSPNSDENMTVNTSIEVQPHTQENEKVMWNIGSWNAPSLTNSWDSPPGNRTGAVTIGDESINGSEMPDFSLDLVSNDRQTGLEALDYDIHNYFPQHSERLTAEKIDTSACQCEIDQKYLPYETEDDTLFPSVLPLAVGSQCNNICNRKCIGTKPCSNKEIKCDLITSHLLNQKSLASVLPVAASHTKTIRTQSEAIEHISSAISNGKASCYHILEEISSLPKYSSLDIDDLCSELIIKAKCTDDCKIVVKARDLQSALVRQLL
Protocol details: PBM E-score (8-mer binding enrichment) (E-score (-0.5 to 0.5)); higher = stronger / more preferred TF binding
Conditions: protein concentration: 100 nM; construct: GST-full length
In all, about 33,000 sequences were measured (“E-score (-0.5 to 0.5)”: median about -0.0014, highest 2% from about 0.25 on). This is one part of a sample in which the highest values are shown more often than they occur.
Reply with the value as a number alone.

Q: What value of PBM E-score has been recorded for this entry: ACTCGCGC
Result: 0.0881

Q: What value of PBM E-score has been recorded for this entry: CACTAGAC
Result: -0.0989

Q: What value of PBM E-score has been recorded for this entry: ACTCGCGG
Result: 0.0242

Q: What value of PBM E-score has been recorded for this entry: TATCGCGA
Result: 0.259

Q: What value of PBM E-score has been recorded for this entry: AGTACTTA
Result: -0.0184

Q: What value of PBM E-score has been recorded for this entry: CAGTATCA
Result: 0.0166

Q: What value of PBM E-score has been recorded for this entry: ACACTATC
Result: 0.115

Q: What value of PBM E-score has been recorded for this entry: AGCTCGCA
Result: 0.0143

Q: What value of PBM E-score has been recorded for this entry: CTTAAGCC
Result: 0.00617

Q: What value of PBM E-score has been recorded for this entry: CAGAGGGC
Result: -0.213

Q: What value of PBM E-score has been recorded for this entry: CAGGATCA
Result: -0.0245

Q: What value of PBM E-score has been recorded for this entry: GACCCGGC
Result: -0.0968

Q: What value of PBM E-score has been recorded for this entry: CAAGCTTG
Result: -0.294

Q: What value of PBM E-score has been recorded for this entry: TAGTAAGA
Result: 0.265

Q: What value of PBM E-score has been recorded for this entry: GGACTTGA
Result: -0.232

Q: What value of PBM E-score has been recorded for this entry: TTCAAAAA
Result: -0.0855

Q: What value of PBM E-score has been recorded for this entry: ACCGTGTA
Result: 0.00454

Q: What value of PBM E-score has been recorded for this entry: ATGAACGC
Result: 0.252

Q: What value of PBM E-score has been recorded for this entry: ACCCTCTA
Result: -0.192

Q: What value of PBM E-score has been recorded for this entry: AATTTAAT
Result: 0.252

Q: What value of PBM E-score has been recorded for this entry: CTTATAAA
Result: 0.275

Q: What value of PBM E-score has been recorded for this entry: CTCAACGA
Result: -0.0873

Q: What value of PBM E-score has been recorded for this entry: AAAGAACA
Result: 0.0562

Q: What value of PBM E-score has been recorded for this entry: CCTCGCGA
Result: 0.121

Q: What value of PBM E-score has been recorded for this entry: CTCCATGA
Result: 0.0675

Q: What value of PBM E-score has been recorded for this entry: CCAATTGA
Result: 0.0388

Q: What value of PBM E-score has been recorded for this entry: AATTTTCC
Result: 0.26

Q: What value of PBM E-score has been recorded for this entry: AATATAAT
Result: 0.18

Q: What value of PBM E-score has been recorded for this entry: ACGGGCAA
Result: -0.05

Q: What value of PBM E-score has been recorded for this entry: AATATAAG
Result: 0.297

Q: What value of PBM E-score has been recorded for this entry: ACTCGCGA
Result: 0.271

Q: What value of PBM E-score has been recorded for this entry: GGCGACCC
Result: -0.332

Q: What value of PBM E-score has been recorded for this entry: ATTGCTTA
Result: 0.176

Q: What value of PBM E-score has been recorded for this entry: CCTGGGGC
Result: -0.343

Q: What value of PBM E-score has been recorded for this entry: CAGAGACG
Result: 0.0945

Q: What value of PBM E-score has been recorded for this entry: AAGTTGGT
Result: 0.252

Q: What value of PBM E-score has been recorded for this entry: CTCTCTTC
Result: -0.215

Q: What value of PBM E-score has been recorded for this entry: CCGACCTC
Result: -0.0414

Q: What value of PBM E-score has been recorded for this entry: ACAATTGG
Result: -0.0197

Q: What value of PBM E-score has been recorded for this entry: TTGGTAAA
Result: 0.073

Q: What value of PBM E-score has been recorded for this entry: AATTTTAA
Result: 0.249

Q: What value of PBM E-score has been recorded for this entry: AAGAGTCG
Result: 0.0695

Q: What value of PBM E-score has been recorded for this entry: ATTATAAC
Result: 0.0512

Q: What value of PBM E-score has been recorded for this entry: AACATAAG
Result: 0.261

Q: What value of PBM E-score has been recorded for this entry: GAGTAACA
Result: -0.00744

Q: What value of PBM E-score has been recorded for this entry: AATTGTAC
Result: 0.252

Q: What value of PBM E-score has been recorded for this entry: ATTGCCTG
Result: 0.0283

Q: What value of PBM E-score has been recorded for this entry: TAGTATCA
Result: 0.265

Q: What value of PBM E-score has been recorded for this entry: GAGTAATA
Result: 0.198

Q: What value of PBM E-score has been recorded for this entry: GAAAGTAC
Result: -0.0278

Q: What value of PBM E-score has been recorded for this entry: ACACGCCC
Result: -0.0578

Q: What value of PBM E-score has been recorded for this entry: CAGTAAGA
Result: 0.194

Q: What value of PBM E-score has been recorded for this entry: GCTCGCGA
Result: 0.3

Q: What value of PBM E-score has been recorded for this entry: GATTGACC
Result: -0.149

Q: What value of PBM E-score has been recorded for this entry: CATCTGGA
Result: -0.165

Q: What value of PBM E-score has been recorded for this entry: CAGGTTTC
Result: 0.111

Q: What value of PBM E-score has been recorded for this entry: AGGCAGGG
Result: -0.133

Q: What value of PBM E-score has been recorded for this entry: CAGTAATA
Result: 0.249

Q: What value of PBM E-score has been recorded for this entry: AATTTTTC
Result: 0.145

Q: What value of PBM E-score has been recorded for this entry: ACGTAGGG
Result: -0.284

Q: What value of PBM E-score has been recorded for this entry: CATTGTAC
Result: 0.0995

Q: What value of PBM E-score has been recorded for this entry: AAAATATT
Result: 0.192

Q: What value of PBM E-score has been recorded for this entry: TAGAGGCA
Result: -0.166

Q: What value of PBM E-score has been recorded for this entry: AATTTTAT
Result: 0.295

Q: What value of PBM E-score has been recorded for this entry: ATTGGTAA
Result: 0.257

Q: What value of PBM E-score has been recorded for this entry: ATTTTTCC
Result: 0.0266

Q: What value of PBM E-score has been recorded for this entry: TAGTAATA
Result: 0.371

Q: What value of PBM E-score has been recorded for this entry: AATCTAGC
Result: 0.08

Q: What value of PBM E-score has been recorded for this entry: CCCTACCG
Result: -0.112

Q: What value of PBM E-score has been recorded for this entry: AACTGATA
Result: 0.0697

Q: What value of PBM E-score has been recorded for this entry: ACAAAGTA
Result: 0.193

Q: What value of PBM E-score has been recorded for this entry: AAGTAACA
Result: 0.0629

Q: What value of PBM E-score has been recorded for this entry: AACAGCGC
Result: 0.0746

Q: What value of PBM E-score has been recorded for this entry: AACATAAC
Result: 0.135

Q: What value of PBM E-score has been recorded for this entry: AACCTGCC
Result: -0.164

Q: What value of PBM E-score has been recorded for this entry: CCAATTGG
Result: 0.263

Q: What value of PBM E-score has been recorded for this entry: CGGAGGTA
Result: -0.0635

Q: What value of PBM E-score has been recorded for this entry: GATTGTAC
Result: -0.082

Q: What value of PBM E-score has been recorded for this entry: ATCTCGCC
Result: -0.0589

Q: What value of PBM E-score has been recorded for this entry: TATATAAA
Result: 0.23

Q: What value of PBM E-score has been recorded for this entry: GTTGGTAA
Result: 0.19
